pIC50 overview
Target: UniProt Q5JUK3
Test: KCNT1 patch clamp assay (SyncroPatch 384PE automated patch clamp)
Conditions: tetracycline inducible HEK-TREX cell line; perforated patch; step from −80 mV to 0 mV; room temperature; read-out: KCNT1-WT IC50
pIC50: −log10 of the molar value.

# count of solved cases: 5
COMPOUND: Cn1nc(C(F)(F)F)cc1C(=O)NC(CC(N)=O)c1nc(-c2cccc(F)c2)no1 (single isomer, unassigned) [Compound 128]
pIC50: ≤ 4.70
//
COMPOUND: C[C@H](NC(=O)c1cc(C(F)(F)F)nn1C)c1nc(-c2ccnc(CO)c2)no1
pIC50: 4.70 to 6.00
//
COMPOUND: C[C@H](NC(=O)c1cc(C(F)(F)F)nn1CCN1CCCC1)c1nc(-c2ccnc(C(F)(F)F)c2)no1
pIC50: ≥ 6.00
//
COMPOUND: C[C@H](NC(=O)c1cc(C(F)(F)F)nn1CCN(C)C)c1nc(-c2ccnc(C(F)(F)F)c2)no1
pIC50: ≥ 6.00
//
COMPOUND: Cn1nc(C(F)(F)F)cc1C(=O)NC(CC#N)c1nc(-c2cccc(F)c2)no1 (stereo not drawn) [Compound 141]
pIC50: 4.70 to 6.00

Attention now turns to another entry.
QUERY: Any idea what pIC50 was measured for C[C@H](NC(=O)c1cc(C(F)(F)F)nn1C)c1nc(-c2ccc(F)c(F)c2)no1 (single isomer, unassigned) ?
RESULT: ≥ 6.00

---

compounds and their reported pIC50
Target: KCNT1 (KNa1.1, Slack) (Homo sapiens)
Sequence (Q5JUK3 whole entry): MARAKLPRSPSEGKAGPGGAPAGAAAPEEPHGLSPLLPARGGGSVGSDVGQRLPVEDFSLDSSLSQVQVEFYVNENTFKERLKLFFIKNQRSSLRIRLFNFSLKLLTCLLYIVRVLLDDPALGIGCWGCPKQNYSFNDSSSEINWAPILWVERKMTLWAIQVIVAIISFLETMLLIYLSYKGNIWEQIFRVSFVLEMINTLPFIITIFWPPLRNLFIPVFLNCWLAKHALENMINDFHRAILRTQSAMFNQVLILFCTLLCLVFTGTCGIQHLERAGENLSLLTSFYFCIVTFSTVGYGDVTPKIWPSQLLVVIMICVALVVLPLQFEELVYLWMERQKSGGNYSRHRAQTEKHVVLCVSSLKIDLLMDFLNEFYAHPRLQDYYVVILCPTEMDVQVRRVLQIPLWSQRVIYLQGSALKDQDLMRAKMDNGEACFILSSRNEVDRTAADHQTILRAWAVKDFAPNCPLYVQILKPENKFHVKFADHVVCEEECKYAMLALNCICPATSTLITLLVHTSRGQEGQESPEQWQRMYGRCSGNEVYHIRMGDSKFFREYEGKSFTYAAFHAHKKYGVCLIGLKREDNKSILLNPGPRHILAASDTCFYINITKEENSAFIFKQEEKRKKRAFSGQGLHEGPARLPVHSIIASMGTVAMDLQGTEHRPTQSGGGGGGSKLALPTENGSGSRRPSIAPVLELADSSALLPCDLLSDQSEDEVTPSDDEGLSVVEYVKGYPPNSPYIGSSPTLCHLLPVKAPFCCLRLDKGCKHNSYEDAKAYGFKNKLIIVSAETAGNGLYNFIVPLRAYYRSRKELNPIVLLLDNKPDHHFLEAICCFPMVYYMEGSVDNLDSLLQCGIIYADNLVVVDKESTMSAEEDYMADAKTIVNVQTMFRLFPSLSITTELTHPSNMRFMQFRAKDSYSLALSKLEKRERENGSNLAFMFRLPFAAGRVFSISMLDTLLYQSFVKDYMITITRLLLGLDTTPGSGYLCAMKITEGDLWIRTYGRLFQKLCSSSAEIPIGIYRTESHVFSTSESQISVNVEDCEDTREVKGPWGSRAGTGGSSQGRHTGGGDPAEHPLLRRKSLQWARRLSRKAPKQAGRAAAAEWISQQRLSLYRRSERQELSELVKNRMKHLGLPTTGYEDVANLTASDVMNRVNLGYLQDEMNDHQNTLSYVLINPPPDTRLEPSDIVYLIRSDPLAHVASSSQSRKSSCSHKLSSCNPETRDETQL
Test: KCNT1 patch clamp assay (SyncroPatch 384PE automated patch clamp)
Details: tetracycline inducible HEK-TREX cell line; perforated patch; step from −80 mV to 0 mV; room temperature; read-out: KCNT1-WT IC50
pIC50: −log10 of the molar value.

COMPOUND: C[C@H](NC(=O)c1cc(C(F)(F)F)nn1C)c1nc(-c2ccnc(CN3CCCC3)c2)no1
pIC50: ≤ 4.70

COMPOUND: CC(NC(=O)c1cc(C(F)(F)F)nn1C)c1nc(-c2cccc(C(=O)O)c2)no1 (centres unmarked)
pIC50: ≤ 4.70

COMPOUND: C[C@H](NC(=O)OC1CCCC1)c1nc(-c2ccnc(C3CC3)c2)no1
pIC50: ≥ 6.00

COMPOUND: C[C@H](NC(=O)c1cc(C(F)(F)F)nn1CC(=O)N(C)C)c1nc(-c2ccnc(C3CC3)c2)no1
pIC50: ≥ 6.00

COMPOUND: Cc1cccc(-c2noc(C(C)NC(=O)c3cc(C)nn3C(F)F)n2)c1 (centres unmarked)
pIC50: ≥ 6.00

QUERY: I have this compound here, CCOC(=O)N[C@@H](C)c1nc(-c2ccnc(C3CC3)c2)no1 , and I need its recorded pIC50.
RESULT: ≥ 6.00

QUERY: I would be grateful if you could share the reported pIC50 for COCC(NC(=O)c1cc(C(F)(F)F)nn1C)c1nc(-c2cccc(C)c2)no1 (centres unmarked) .
RESULT: ≥ 6.00

QUERY: Given the compound C[C@H](NC(=O)OC(C)(C)C)c1nc(-c2ccnc(C(F)(F)F)c2)no1 , what is its reported pIC50?
RESULT: ≥ 6.00

---

Reported IC50 values for the following compounds.
Molecular target: KCNT1 (KNa1.1, Slack) (Homo sapiens)
Test: KCNT1 patch clamp assay (SyncroPatch 384PE automated patch clamp)
Settings: tetracycline inducible HEK-TREX cell line; perforated patch; step from −80 mV to 0 mV; room temperature; read-out: KCNT1-WT IC50
Protocol: KCNT1—Patch Clamp Assay Inhibition of KCNT1 (KNa1.1, Slack) was evaluated using a tetracycline inducible cell line (HEK-TREX). Currents were recorded using the SyncroPatch 384PE automated, patch clamp system. […] Current were recorded in perforated patch mode (10 μM escin) from a population of cells. […] Currents were recorded at room temperature. […] The average mean current from 3 sweeps was calculated and the % inhibition of each compound was calculated. […]

Here are 4 compounds together with their reported answers.
COMPOUND: CC(C)[C@@H](NC(=O)c1cc(C2CC2)nn1C)c1nc(-c2cccc(F)c2)no1
IC50: 1000 to 20000 nM
--
COMPOUND: C[C@H](NC(=O)OC(C)(C)C)c1nc(-c2ccnc(OC3CC3)c2)no1
IC50: 1000 to 20000 nM
--
COMPOUND: CC[C@H](NC(=O)c1cc(C(F)(F)F)nn1C1CC1)c1nc(-c2cccc(F)c2)no1
IC50: ≤ 1000 nM
--
COMPOUND: Cn1nc(C(F)(F)F)cc1C(=O)NC(CS(C)(=O)=O)c1nc(-c2cccc(F)c2)no1 (centres unmarked)
IC50: 1000 to 20000 nM

QUERY: # IC50 lookup, item CC[C@H](NC(=O)c1ccnn1C1CCCC1)c1nc(-c2ccnc(C)c2)no1
RESULT: ≤ 1000 nM

QUERY: Returns the measured IC50 for the input compound. Input: C[C@H](NC(=O)c1cc(C(F)(F)F)nn1C(F)F)c1nc(-c2cccc(F)c2)no1
RESULT: ≤ 1000 nM

QUERY: Quick one: IC50 of Cc1nn(C(C)C)cc1C(=O)N[C@@H](C)c1nc(-c2cc(F)cc(Cl)c2)no1 ?
RESULT: ≤ 1000 nM

QUERY: Dear colleague, I am looking for the recorded IC50 of the following compound: CC(=O)NC[C@@H](NC(=O)c1cc(C(F)(F)F)nn1C)c1nc(-c2cccc(F)c2)no1
RESULT: 1000 to 20000 nM
